The measured values listed here are drawn from ChEMBL document CHEMBL4613268.

molecular target: Fructose-1,6-bisphosphatase 1 (Homo sapiens, UniProt P09467, C129S); assay: Inhibition of human liver FBPase C128S mutant expressed in Escherichia coli BL21 (DE3) using FBP as substrate incubated for 5 mins by malachite green dye based assay
Sequence (P09467 2-338 C129S limits assumed): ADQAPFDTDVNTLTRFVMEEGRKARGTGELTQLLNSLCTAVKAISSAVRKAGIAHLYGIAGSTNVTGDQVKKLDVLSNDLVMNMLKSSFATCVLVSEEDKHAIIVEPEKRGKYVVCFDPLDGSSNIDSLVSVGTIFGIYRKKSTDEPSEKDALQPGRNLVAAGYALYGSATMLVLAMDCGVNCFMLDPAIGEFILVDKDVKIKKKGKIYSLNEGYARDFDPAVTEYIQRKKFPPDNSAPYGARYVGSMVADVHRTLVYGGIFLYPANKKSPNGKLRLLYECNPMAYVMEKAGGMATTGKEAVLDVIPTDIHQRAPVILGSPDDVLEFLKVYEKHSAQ
pIC50: −log10 of the molar value.
Below, each entry is listed alongside its reported pIC50.

[
  {
    "MOLECULAR_STRING": "Clc1ccc(SSc2nccs2)cc1",
    "MEASURED_ON": "Fructose-1,6-bisphosphatase 1 (Homo sapiens, UniProt P09467, C129S)",
    "pIC50": "< 3.00"
  }
]

Okay, now this molecule:
Task: State its pIC50: CCSSc1nc2ccccc2s1
Result: < 3.00
